Biological target: Voltage-dependent calcium channel gamma-2 subunit (Mus musculus) + Glutamate receptor 2 (Rattus norvegicus) (UniProt O88602+P19491)
Sequence (O88602 whole entry, looked up): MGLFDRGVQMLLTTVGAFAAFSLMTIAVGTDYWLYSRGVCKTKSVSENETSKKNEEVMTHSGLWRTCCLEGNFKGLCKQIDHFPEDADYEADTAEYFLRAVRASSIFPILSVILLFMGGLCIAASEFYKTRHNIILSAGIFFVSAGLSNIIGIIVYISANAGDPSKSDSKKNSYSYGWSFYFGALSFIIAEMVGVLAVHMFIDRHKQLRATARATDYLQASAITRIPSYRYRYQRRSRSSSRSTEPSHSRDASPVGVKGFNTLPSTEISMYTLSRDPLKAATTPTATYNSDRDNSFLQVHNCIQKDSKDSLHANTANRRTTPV
Sequence (P19491 whole entry, looked up): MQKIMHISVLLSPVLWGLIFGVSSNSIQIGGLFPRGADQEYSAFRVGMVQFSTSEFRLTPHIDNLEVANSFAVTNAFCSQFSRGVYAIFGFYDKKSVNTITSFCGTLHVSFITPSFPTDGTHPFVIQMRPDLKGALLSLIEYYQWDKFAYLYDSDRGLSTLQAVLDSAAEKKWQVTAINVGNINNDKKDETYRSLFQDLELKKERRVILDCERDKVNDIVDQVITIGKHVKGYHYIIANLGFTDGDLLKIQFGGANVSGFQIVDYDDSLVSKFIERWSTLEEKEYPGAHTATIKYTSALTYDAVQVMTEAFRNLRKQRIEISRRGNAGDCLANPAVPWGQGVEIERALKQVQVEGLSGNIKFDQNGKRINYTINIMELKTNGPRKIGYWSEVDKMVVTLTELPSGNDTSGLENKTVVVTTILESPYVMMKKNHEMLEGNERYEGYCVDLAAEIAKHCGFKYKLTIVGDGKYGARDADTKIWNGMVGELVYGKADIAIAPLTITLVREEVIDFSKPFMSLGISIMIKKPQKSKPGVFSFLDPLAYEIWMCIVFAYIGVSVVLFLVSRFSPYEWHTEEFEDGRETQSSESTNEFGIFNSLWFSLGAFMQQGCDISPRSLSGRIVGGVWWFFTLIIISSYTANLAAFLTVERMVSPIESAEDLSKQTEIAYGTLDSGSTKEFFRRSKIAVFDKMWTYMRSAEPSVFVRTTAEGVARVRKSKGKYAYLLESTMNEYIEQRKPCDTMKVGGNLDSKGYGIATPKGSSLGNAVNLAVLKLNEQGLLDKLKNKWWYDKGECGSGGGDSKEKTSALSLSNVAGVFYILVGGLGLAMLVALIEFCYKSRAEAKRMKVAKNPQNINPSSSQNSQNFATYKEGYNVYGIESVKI
Assay: modulators of GluA2-stargazin AMPA receptor complexes, primary screen, cell-based, membrane potential dye (AID 1259245)
Conditions: HEK293 GluA2+stargazin, membrane potential dye (FDSS), glutamate EC50, at 30 µM, hits were called plate by plate, in both directions; measured here: glutamate response slope, % max
About 1,400 (3.5%) of roughly 40,000 compounds were called active. The list comes from a sample in which actives are over-represented; it also holds close analogues and randomly drawn compounds.
glutamate slope, % of max strictly under 40% means Met; at 40% or over means Not met.

INPUT: hey, is glutamate slope, % of max for O=S(=O)(NCC1(c2cccs2)CC1)c1ccc(OC(F)(F)F)cc1 lower than 40% or not?
OUTPUT: Met

INPUT: hey, is glutamate slope, % of max for CCOCCn1c(=O)c2c(nc3n2CCCN3c2ccc(Br)cc2)n(C)c1=O lower than 40% or not?
OUTPUT: Not met

INPUT: hey, is glutamate slope, % of max for COc1cc(CN2CCN(c3nccn3C)CC2)cc(OC)c1 lower than 40% or not?
OUTPUT: Met

INPUT: hey, is glutamate slope, % of max for Cc1cc([N+](=O)[O-])ccc1NC(=O)C(=O)NCc1ccncc1 lower than 40% or not?
OUTPUT: Not met

INPUT: hey, is glutamate slope, % of max for COc1ccc(CCNC(=O)Nc2c[nH]c3ccccc23)cc1 lower than 40% or not?
OUTPUT: Not met

INPUT: hey, is glutamate slope, % of max for COc1ccc(S(=O)(=O)NCC(c2cccn2C)N2CCOCC2)cc1OC (stereo not given) lower than 40% or not?
OUTPUT: Not met

INPUT: hey, is glutamate slope, % of max for CCOc1ccc(S(=O)(=O)NCC(O)c2ccsc2)cc1F (stereo not given) lower than 40% or not?
OUTPUT: Not met

INPUT: hey, is glutamate slope, % of max for COc1ccc(S(=O)(=O)NCC(c2ccsc2)N2CCCCCC2)cc1F (stereo not given) lower than 40% or not?
OUTPUT: Met

INPUT: hey, is glutamate slope, % of max for O=C(NCC1(c2cccs2)CC1)Nc1c(F)cccc1F lower than 40% or not?
OUTPUT: Not met

INPUT: hey, is glutamate slope, % of max for Cn1cccc1C(CNS(=O)(=O)c1ccc(F)cc1)N1CCOCC1 (stereo not given) lower than 40% or not?
OUTPUT: Not met

###

Exercise: for every item that follows, state its recorded glutamate response, % of max.
Molecular target: Voltage-dependent calcium channel gamma-2 subunit (Mus musculus) + Glutamate receptor 2 (Rattus norvegicus) (UniProt O88602+P19491)
Assay: modulators of GluA2-stargazin AMPA receptor complexes, primary screen, cell-based, membrane potential dye (AID 1259245)
Conditions: HEK293 GluA2+stargazin, membrane potential dye (FDSS), glutamate EC50, at 30 µM, hits were called plate by plate, in both directions
Hit rate of the full screen: of about 40,000 compounds, about 1,400 (3.5%) were called active. This is one part of a sample in which actives are shown more often than they occur.
Respond with the bare value in %.

INPUT: # glutamate response, % of max lookup, item CN1C(=O)Cc2cc(NC(=O)NC(c3ccccc3)c3ccccc3)ccc21
OUTPUT: 41.8

INPUT: # glutamate response, % of max lookup, item Cc1nc2ccccn2c1C(=O)Nc1ccc2c(c1)CC(=O)N2C
OUTPUT: 46.6

INPUT: # glutamate response, % of max lookup, item COc1ccc2c(=O)c(Oc3ccc(C(=O)N4CCN(c5ccccn5)CC4)cc3)c(C)oc2c1
OUTPUT: 28.3

INPUT: # glutamate response, % of max lookup, item Cc1nc2ccccn2c1C(=O)NCC(O)(c1ccccc1)C(F)(F)F (stereo not given)
OUTPUT: 14.1

INPUT: # glutamate response, % of max lookup, item CC(O)(CNC(=O)/C=C/c1ccccc1)c1ccccc1 (stereo not given)
OUTPUT: 44.2

INPUT: # glutamate response, % of max lookup, item CC(C)c1ccccc1NC(=O)Cc1csc(NC(=O)c2ccc(=O)[nH]c2)n1
OUTPUT: 20.3

INPUT: # glutamate response, % of max lookup, item Cc1ccc(C(=O)Nc2cccc(N3CCCC3=O)c2)cc1[N+](=O)[O-]
OUTPUT: 33.5

INPUT: # glutamate response, % of max lookup, item COc1ccc2c(=O)c(Oc3ccc(C(=O)Nc4cccnc4)cc3)c(C)oc2c1
OUTPUT: 24.4

INPUT: # glutamate response, % of max lookup, item Cc1c(-c2ccccc2)c(=O)oc2c3c(ccc12)OCN(Cc1cccnc1)C3
OUTPUT: 15.5

INPUT: # glutamate response, % of max lookup, item COCCNC(=O)c1ccc(Oc2c(C)oc3cc(OC)ccc3c2=O)cc1
OUTPUT: 9.44

###

Target: Voltage-dependent calcium channel gamma-2 subunit (Mus musculus) + Glutamate receptor 2 (Rattus norvegicus) (UniProt O88602+P19491)
Assay: modulators of GluA2-stargazin AMPA receptor complexes, primary screen, cell-based, membrane potential dye (AID 1259245)
Details: HEK293 GluA2+stargazin, membrane potential dye (FDSS), glutamate EC50, at 30 µM, hits were called plate by plate, in both directions; compound-alone response (agonism)
Screen size: about 40,000 compounds; about 1,400 (3.5%) were called active. Many of the other results were omitted from the sample, so actives are more common in it than they were.
compound max-min signal strictly under 0.09 means Yes; at 0.09 or over means No.

INPUT: hey, is compound max-min signal for Cc1cc(Cl)cc2sc(N(CC3CCCO3)C(=O)CN(C)S(C)(=O)=O)nc12 (stereo not drawn) lower than 0.09 or not?
OUTPUT: Yes

INPUT: hey, is compound max-min signal for CCOC(=O)N1CCN(/C=C2\Oc3c(ccc(O)c3C)C2=O)CC1 lower than 0.09 or not?
OUTPUT: No

INPUT: hey, is compound max-min signal for O=C(NC1CCc2ccccc21)c1nnn(-c2ccc(F)cc2)c1-c1ccncc1 (stereo not drawn) lower than 0.09 or not?
OUTPUT: Yes

INPUT: hey, is compound max-min signal for Cc1ccc(N2CCN(C(=O)COc3nccc(C)n3)CC2)nn1 lower than 0.09 or not?
OUTPUT: Yes

INPUT: hey, is compound max-min signal for CC(NC(=O)C12CC3CC(CC(C3)C1)C2)C(=O)N/N=C/c1ccc([N+](=O)[O-])o1 (stereo not drawn) lower than 0.09 or not?
OUTPUT: No

INPUT: hey, is compound max-min signal for CCc1cccc(CC)c1NC(=O)Cn1nc(-c2ccco2)c2sc(N3CCCCC3)nc2c1=O lower than 0.09 or not?
OUTPUT: Yes

INPUT: hey, is compound max-min signal for COc1ccc(NC(=O)COc2ccccc2F)cc1N1CCCCC1=O lower than 0.09 or not?
OUTPUT: Yes

INPUT: hey, is compound max-min signal for CCCC(=O)N1CCN(c2ccc(Nc3cc(C)ccn3)nn2)CC1 lower than 0.09 or not?
OUTPUT: No

INPUT: hey, is compound max-min signal for CC(O)(CNC(=O)NCc1ccc(F)cc1)c1ccc(-c2ccccc2)cc1 (stereo not drawn) lower than 0.09 or not?
OUTPUT: No

INPUT: hey, is compound max-min signal for COc1ccc(OC)c2sc(N(Cc3ccccn3)C(=O)Cc3ccc(S(C)(=O)=O)cc3)nc12 lower than 0.09 or not?
OUTPUT: Yes

INPUT: hey, is compound max-min signal for CC(=O)NCCn1ncc2c(N3CCN(c4ccccc4)CC3)ncnc21 lower than 0.09 or not?
OUTPUT: No

INPUT: hey, is compound max-min signal for COC(=O)N1CCC(CNC(=O)c2ccc(F)cc2)CC1 lower than 0.09 or not?
OUTPUT: Yes

INPUT: hey, is compound max-min signal for C=CCOC(=O)COc1ccc2c(c1)O/C(=C\c1cc(OC)ccc1OC)C2=O lower than 0.09 or not?
OUTPUT: No

INPUT: hey, is compound max-min signal for CCN1CC(c2nc3ccccc3n2Cc2ccc(Cl)c(Cl)c2)CC1=O (stereo not drawn) lower than 0.09 or not?
OUTPUT: No

INPUT: hey, is compound max-min signal for COC(=O)c1cc(OC)c(OC)cc1NC(=O)c1cc(C)oc1C lower than 0.09 or not?
OUTPUT: No

INPUT: hey, is compound max-min signal for Cc1cc(N(C)C)nc(-n2cc([N+](=O)[O-])cn2)n1 lower than 0.09 or not?
OUTPUT: No

INPUT: hey, is compound max-min signal for Cc1ccc(NC(=O)Cn2nc(-c3ccco3)c3sc(N4CCOCC4)nc3c2=O)c(C)c1 lower than 0.09 or not?
OUTPUT: No

INPUT: hey, is compound max-min signal for COc1ccc(S(=O)(=O)NCC(c2ccsc2)N2CCCCCC2)cc1F (stereo not drawn) lower than 0.09 or not?
OUTPUT: No

INPUT: hey, is compound max-min signal for COc1ccc(CC(=O)Nc2ccc3c(c2)N(S(=O)(=O)c2ccccc2)CCC3)cc1 lower than 0.09 or not?
OUTPUT: Yes

INPUT: hey, is compound max-min signal for Cc1ccc(NC(=O)CSC2=NC(C)(C)N=C2c2ccccc2)c(C)c1 lower than 0.09 or not?
OUTPUT: No

INPUT: hey, is compound max-min signal for CCCOc1ccc(N2CCN(C(=O)COc3ccc4ccccc4c3)CC2)nn1 lower than 0.09 or not?
OUTPUT: Yes

INPUT: hey, is compound max-min signal for O=S(=O)(/C=C/c1ccccc1)NCC#CCN1CCc2ccccc2C1 lower than 0.09 or not?
OUTPUT: No

INPUT: hey, is compound max-min signal for COc1ccc(NC(=O)C(=O)NCC2CCN(C)CC2)c(OC)c1 lower than 0.09 or not?
OUTPUT: Yes

INPUT: hey, is compound max-min signal for CCOc1ccc(S(=O)(=O)NCC(O)c2ccsc2)cc1F (stereo not drawn) lower than 0.09 or not?
OUTPUT: No

INPUT: hey, is compound max-min signal for Cc1[nH]c(=O)[nH]c(=O)c1CC(=O)N1CCN(S(C)(=O)=O)CC1 lower than 0.09 or not?
OUTPUT: No

INPUT: hey, is compound max-min signal for CN(C)C(=O)N1CCN(S(=O)(=O)c2ccc(F)cc2)CC1 lower than 0.09 or not?
OUTPUT: No

INPUT: hey, is compound max-min signal for O=C(Nc1cc(-c2ccco2)nn1-c1nc(-c2ccccc2)cc(=O)[nH]1)c1ccco1 lower than 0.09 or not?
OUTPUT: No

INPUT: hey, is compound max-min signal for CCOc1ccccc1Nc1nnc(Cc2ccc(OC)cc2)c(=O)[nH]1 lower than 0.09 or not?
OUTPUT: Yes

INPUT: hey, is compound max-min signal for COCCCNc1nc2c(c(=O)n(C)c(=O)n2C)n1CC(O)COc1ccc(C)c(C)c1 (stereo not drawn) lower than 0.09 or not?
OUTPUT: Yes

INPUT: hey, is compound max-min signal for O=S(=O)(NCC#CCN1CCc2ccccc2C1)c1ccc(Br)cc1 lower than 0.09 or not?
OUTPUT: Yes

INPUT: hey, is compound max-min signal for CC(O)(CNC(=O)/C=C/c1ccccc1)c1ccccc1 (stereo not drawn) lower than 0.09 or not?
OUTPUT: No

INPUT: hey, is compound max-min signal for COc1ccc(-c2cc3ccc4c(c3oc2=O)CN(C2CCS(=O)(=O)C2)CO4)cc1OC (stereo not drawn) lower than 0.09 or not?
OUTPUT: Yes

INPUT: hey, is compound max-min signal for COC(=O)c1ccc(NC(=O)CSc2nc(-c3ccccc3)c(N)s2)cc1 lower than 0.09 or not?
OUTPUT: No

INPUT: hey, is compound max-min signal for O=C(Nc1sc2ccccc2c(=O)c1-c1ccc2c(c1)OCO2)c1ccco1 lower than 0.09 or not?
OUTPUT: No

INPUT: hey, is compound max-min signal for CCCn1c(N2CCC(C(N)=O)CC2)nc2c1c(=O)n(C)c(=O)n2C lower than 0.09 or not?
OUTPUT: Yes

INPUT: hey, is compound max-min signal for Cn1cc(C(=O)NCc2c(F)cccc2F)nn1 lower than 0.09 or not?
OUTPUT: Yes

INPUT: hey, is compound max-min signal for COc1ccc(NC(=O)CCc2sc(C)nc2-c2cccs2)cc1OC lower than 0.09 or not?
OUTPUT: No

INPUT: hey, is compound max-min signal for CCOC(=O)CNC(=O)C(=O)c1c(C)[nH]c2ccccc12 lower than 0.09 or not?
OUTPUT: No

INPUT: hey, is compound max-min signal for COc1ccc(CCNC(=O)CCc2sc(C)nc2-c2cccs2)cc1 lower than 0.09 or not?
OUTPUT: Yes

INPUT: hey, is compound max-min signal for O=C(/C=C/c1cccs1)NCC1CCN(C(=O)COc2ccccc2)CC1 lower than 0.09 or not?
OUTPUT: Yes

INPUT: hey, is compound max-min signal for O=C(NC(C(=O)N1CCCCC1)C12CC3CC(CC(C3)C1)C2)c1ccc(F)cc1 (stereo not drawn) lower than 0.09 or not?
OUTPUT: Yes
